- System: Gaucher patient fibroblasts (Coreill Institute, GM08760)
- procedure.details: GPN induced calcium release phenotypic assay on Gaucher patient fibroblasts
- Type: cell-based, human
- condition.parameters: Gaucher patient cells; 72 hours compound treatment; ratio of GPN response with drug / without drug x 100
Counter-ions that a name gives are not always drawn.

compound	unit.label	Maximal % Change in GPN Response
CCCCC(C(=O)c1ccc(OCCN(C)C)cc1)c1ccccc1 (centres unmarked)	%	87
CCCCC(C(=O)c1ccc(OCCN(C)C)cc1)c1ccccc1C(C)C (centres unmarked)	%	233
CC(C)CC(C(=O)c1ccc(OCCN(C)C)cc1)c1ccccc1 (centres unmarked)	%	108
CC/C(=C/c1ccc(OCCN(C)C)cc1)c1ccccc1 [Example 2, trifluoroacetate]	%	62
CC/C(=C\c1ccc(OCCN(C)C)cc1)c1ccccc1	%	70
C=Cc1ccccc1C(CCCC)C(=O)c1ccc(OCCN(C)C)cc1 (centres unmarked)	%	217
CC/C(=C\c1ccccc1)c1ccc(OCCN(C)C)cc1	%	53
CCCCC(C(=O)c1ccc(OCCN(C)C)cc1)c1ccccc1CC (centres unmarked)	%	138
CC(C)C(C(=O)c1ccc(OCCN(C)C)cc1)c1ccccc1 (centres unmarked)	%	54
C=C(C)c1ccccc1C(CCCC)C(=O)c1ccc(OCCN(C)C)cc1 (centres unmarked)	%	275
C/C(=C/c1ccc(OCCN2CCCC2)cc1)c1ccccc1	%	72

###

- Tested on: Gaucher patient fibroblasts (Coreill Institute, GM08760)
- procedure.details: GPN induced calcium release phenotypic assay on Gaucher patient fibroblasts
- Format: cell-based, human
- condition.parameters: Gaucher patient cells; 72 hours compound treatment; ratio of GPN response with drug / without drug x 100
Where a name gives a salt, the structure may show the parent alone.
Classification field: enter yes for Maximal % Change in GPN Response values not below 50%, no for values below it.

compound	assigned.label
CC/C(=C\c1ccc(OCCN2CCCC2)cc1)c1ccccc1 [Example 3]	yes
CC/C(=C\c1ccccc1)c1ccc(OCCN2CCCC2)cc1 [Example 10]	no
CC/C(=C/c1ccc(OCCN(C)C)cc1)c1ccc([N+](=O)[O-])cc1 [Example 6]	no
CCC(Cc1ccc(OCCN(C)C)cc1)c1ccccc1 (centres unmarked) [MC210155, trifluoroacetate]	yes
CCCCC(=Cc1ccc(OCCN(C)C)cc1)c1ccccc1 (stereo in doubt) [Example 4, trifluoroacetate]	yes
